biological target: mPAD4 (Mus musculus, UniProt Q9Z183); test: PAD4 inhibition assay, RapidFire mass spectrometry (mPAD4 RFMS); assay type: biochemical; settings: pIC50=-log(IC50); read-out: mPAD4 RFMS pIC50 (converted)
Sequence (Q9Z183 whole entry): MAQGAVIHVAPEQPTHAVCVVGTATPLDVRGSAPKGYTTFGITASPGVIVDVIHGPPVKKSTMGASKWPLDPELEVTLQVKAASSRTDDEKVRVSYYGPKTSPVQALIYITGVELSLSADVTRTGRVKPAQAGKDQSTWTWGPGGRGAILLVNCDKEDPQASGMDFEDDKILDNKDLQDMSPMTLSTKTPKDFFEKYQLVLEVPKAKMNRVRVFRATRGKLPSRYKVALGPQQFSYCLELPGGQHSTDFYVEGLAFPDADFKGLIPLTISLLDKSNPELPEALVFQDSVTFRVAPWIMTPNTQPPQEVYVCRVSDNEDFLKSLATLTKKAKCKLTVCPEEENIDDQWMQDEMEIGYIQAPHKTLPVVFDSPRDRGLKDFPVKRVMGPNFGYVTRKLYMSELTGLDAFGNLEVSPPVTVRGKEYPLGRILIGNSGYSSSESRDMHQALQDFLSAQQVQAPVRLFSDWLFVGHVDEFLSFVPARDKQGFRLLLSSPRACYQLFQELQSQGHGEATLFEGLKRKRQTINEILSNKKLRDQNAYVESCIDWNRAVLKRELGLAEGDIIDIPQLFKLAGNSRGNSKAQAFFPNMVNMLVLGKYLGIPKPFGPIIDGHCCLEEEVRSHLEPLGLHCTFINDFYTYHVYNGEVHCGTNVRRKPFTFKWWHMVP
Listed here: items and their measured IC50.

QUERY: // returns reported IC50 for input CCn1c(-c2nc3cc(C(=O)N4CCC[C@@H](N)C4)cnc3n2CCOC)cc2cccnc21
RESULT: 1 to 10 µM

QUERY: Would you kindly repeat that for CCn1c(-c2nc3cc(C(=O)N4C[C@H]5CC[C@@H]4[C@@H]5N)cnc3n2C[C@H]2C[C@@](C)(OC)C2)cc2ccc(OC)nc21 ?
RESULT: ≤ 1 µM

QUERY: What do you get for CCn1c(-c2nc3cc(C(=O)N4C[C@H]5CC[C@@H]4[C@@H]5N)cnc3n2CCOC)cc2cccnc21 ?
RESULT: 1 to 10 µM

QUERY: Also check Cn1c(-c2cc3cccnc3n2CC2CC2)nc2cc(C(=O)N3CC[C@@H]4CCN[C@@H]4C3)cnc21 [Compound I-26]
RESULT: 1 to 10 µM
